Reference for the values: ChEMBL document CHEMBL5365457

- experimental_target: Protein deacetylase HDAC6 (Homo sapiens, UniProt Q9UBN7)
- Sequence (Q9UBN7 whole entry): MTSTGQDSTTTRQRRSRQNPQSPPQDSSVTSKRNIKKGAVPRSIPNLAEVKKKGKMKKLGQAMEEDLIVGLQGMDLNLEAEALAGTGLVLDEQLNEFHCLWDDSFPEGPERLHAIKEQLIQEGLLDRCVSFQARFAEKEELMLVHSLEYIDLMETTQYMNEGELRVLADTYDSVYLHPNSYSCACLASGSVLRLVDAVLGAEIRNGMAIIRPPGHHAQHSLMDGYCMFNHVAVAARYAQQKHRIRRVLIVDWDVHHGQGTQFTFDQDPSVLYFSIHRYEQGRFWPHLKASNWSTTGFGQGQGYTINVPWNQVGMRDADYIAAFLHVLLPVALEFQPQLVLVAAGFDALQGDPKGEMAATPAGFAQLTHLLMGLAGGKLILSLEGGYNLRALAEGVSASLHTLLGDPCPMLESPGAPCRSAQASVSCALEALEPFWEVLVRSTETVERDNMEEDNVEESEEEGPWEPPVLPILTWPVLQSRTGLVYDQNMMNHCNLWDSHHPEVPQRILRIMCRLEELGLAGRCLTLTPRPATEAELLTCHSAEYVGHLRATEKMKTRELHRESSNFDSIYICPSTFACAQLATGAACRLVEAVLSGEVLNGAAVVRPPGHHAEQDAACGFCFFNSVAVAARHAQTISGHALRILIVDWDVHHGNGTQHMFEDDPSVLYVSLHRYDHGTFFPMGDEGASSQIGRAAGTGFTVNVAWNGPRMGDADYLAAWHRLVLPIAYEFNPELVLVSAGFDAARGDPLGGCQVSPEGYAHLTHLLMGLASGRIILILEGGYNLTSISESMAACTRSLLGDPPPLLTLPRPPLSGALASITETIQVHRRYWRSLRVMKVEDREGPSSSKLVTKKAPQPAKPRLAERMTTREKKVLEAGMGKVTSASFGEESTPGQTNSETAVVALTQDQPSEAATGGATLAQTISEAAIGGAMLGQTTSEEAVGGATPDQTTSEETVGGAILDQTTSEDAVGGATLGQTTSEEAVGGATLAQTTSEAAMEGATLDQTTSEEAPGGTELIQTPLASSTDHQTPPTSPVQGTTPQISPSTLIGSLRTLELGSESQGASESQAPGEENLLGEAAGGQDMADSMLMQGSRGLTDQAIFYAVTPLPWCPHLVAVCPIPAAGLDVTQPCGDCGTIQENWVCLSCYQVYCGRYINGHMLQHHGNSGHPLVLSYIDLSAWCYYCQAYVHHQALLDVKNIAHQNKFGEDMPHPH
- assay_procedure: Inhibition of HDAC6 (unknown origin)
reported_property: pIC50
The meaning of pIC50 here: minus log10 of the concentration in molar units.

What pIC50 appears in the records for this compound with Protein deacetylase HDAC6 (Homo sapiens, UniProt Q9UBN7)? Nc1ccccc1NC(=O)c1cnccn1
4.47

###

- experimental_target: Protein deacetylase HDAC6 (Homo sapiens, UniProt Q9UBN7)
- assay_procedure: Inhibition of human recombinant HDAC6 incubated for 10 mins by fluorescence based microplate analysis
reported_property: IC50
Be sure to follow the number with its unit.

I have this compound here, CCCNNC(=O)c1cnc(NCc2ccc(OC)cc2)cn1 , and I need its recorded IC50.
25.9 µM

###

- assay_procedure: AUC (0 to t) in Wistar rat at 5 mg/kg, ip measured upto 24 hrs by HPLC analysis
- Format: ADME, organism-based
- Design: dose 5 mg/kg, time < 24 hrs, route ip
- run_conditions: in vivo
reported_property: AUC(0-t) at 24 h (ng·h/mL)
Numeric answer only, unit ng·h/mL assumed.

I have this molecule here, CCCNNC(=O)c1cnc(NCc2ccc(OC)cc2)cn1 , and I need its recorded AUC(0-t) at 24 h.
4050

###

- experimental_target: Protein deacetylase HDAC6 (Homo sapiens)
- assay_procedure: Inhibition of human recombinant HDAC6 incubated for 15 mins by fluorescence based microplate analysis
reported_property: IC50 (µM)
Numeric answer only, unit µM assumed.

I have this compound here, Nc1ccccc1NC(=O)c1cnc(NCc2ccccc2)cn1 , and I need its recorded IC50.
37.2

###

- experimental_target: Histone deacetylase 3 (Homo sapiens, UniProt O15379)
- Sequence (O15379 whole entry): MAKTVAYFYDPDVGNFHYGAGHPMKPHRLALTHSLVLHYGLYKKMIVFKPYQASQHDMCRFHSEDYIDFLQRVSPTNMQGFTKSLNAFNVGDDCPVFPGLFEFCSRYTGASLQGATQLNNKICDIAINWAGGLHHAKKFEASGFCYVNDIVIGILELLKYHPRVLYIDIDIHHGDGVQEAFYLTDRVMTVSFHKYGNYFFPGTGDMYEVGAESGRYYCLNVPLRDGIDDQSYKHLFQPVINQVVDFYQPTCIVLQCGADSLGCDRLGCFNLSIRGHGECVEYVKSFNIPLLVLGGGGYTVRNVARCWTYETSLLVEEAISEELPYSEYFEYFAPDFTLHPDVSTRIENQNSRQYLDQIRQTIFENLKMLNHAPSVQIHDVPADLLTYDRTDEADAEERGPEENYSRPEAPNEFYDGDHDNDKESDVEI
- assay_procedure: Inhibition of human recombinant HDAC3 incubated for 15 mins by fluorescence based microplate analysis
reported_property: IC50 (µM)
Numeric answer only, unit µM assumed.

I have this compound here, CCCNNC(=O)c1cnc(NCc2ccc(OC)cc2)cn1 , and I need its recorded IC50.
0.014

###

- assay_procedure: Cytotoxicity against human MCF-10A cells assessed as inhibition of cell growth incubated for 72 hrs by MTT assay
- Type: toxicity, cell-based
Each record here notes measured IC50 at 72 h.
Numeric answer only, unit µM assumed.

Worked set:
CCCNNC(=O)c1cnc(NC(=O)c2ccc3[nH]ccc3c2)cn1 : 125
CCCNNC(=O)c1cnc(NC(=O)c2ccc3ncccc3c2)cn1 : 140
CCCNNC(=O)c1cnc(Nc2ccccc2)cn1 : 205
CCCCNNC(=O)c1cnc(NC(C)=O)cn1 : 106

I have this compound here, CCCNNC(=O)c1cnc(N)cn1 , and I need its recorded IC50 at 72 h.
139

Then what about the compound CCCNNC(=O)c1cnc(Nc2cccc3ccccc23)cn1 ?
112

Then what about the compound CCCCNNC(=O)c1cnccn1 ?
103

###

- assay_procedure: AUC (0 to t) in Wistar rat at 15 mg/kg, ip measured upto 24 hrs by HPLC analysis
- Type: ADME, organism-based
- Set-up: dose 15 mg/kg, time < 24 hrs, route ip
- run_conditions: in vivo
Each record here notes measured AUC(0-t) at 24 h.
Numeric answer only, unit ng·h/mL assumed.

CCCCNNC(=O)c1ccc(Br)cc1 : 14500

I have this molecule here, CCCNNC(=O)c1cnc(NCc2ccc(OC)cc2)cn1 , and I need its recorded AUC(0-t) at 24 h.
19600

###

- assay_procedure: Cytotoxicity against human HCEC cells assessed as inhibition of cell growth incubated for 72 hrs by MTT assay
- Type: toxicity, cell-based
- run_conditions: human, HCEC cells
reported_property: IC50 at 72 h (µM)
Numeric answer only, unit µM assumed.

Worked set:
CCCNNC(=O)c1cnc(Nc2cccc3ccccc23)cn1 : 126
CCCCNNC(=O)c1cnc(N)cn1 : 215
CCCCNNC(=O)c1cnc(NC(=O)c2ccc3ncccc3c2)cn1 : 234
CCCCNNC(=O)c1cnc(NC(C)=O)cn1 : 187
CCCCNNC(=O)c1cnccn1 : 175
CCCNNC(=O)c1cnc(Nc2ccccc2)cn1 : 196
CCCNNC(=O)c1cnc(N)cn1 : 220
CCCNNC(=O)c1cnc(NCc2ccc(OC)cc2)cn1 : 212
CCCCNNC(=O)c1cnc(NCc2ccccc2)cn1 : 129
CCCNNC(=O)c1cnc(NC(=O)c2ccc3[nH]ccc3c2)cn1 : 180

I have this compound here, CCCNNC(=O)c1cnc(NCc2ccccc2)cn1 , and I need its recorded IC50 at 72 h.
140

Then what about the compound CCCNNC(=O)c1cnc(NC(C)=O)cn1 ?
164

Then what about the compound CCCCNNC(=O)c1cnc(NC(=O)c2ccc3[nH]ccc3c2)cn1 ?
130

Then what about the compound CCCNNC(=O)c1cnc(NC(=O)c2ccc3ncccc3c2)cn1 ?
131

Then what about the compound CCCCNNC(=O)c1ccc(Br)cc1 ?
95.4

Then what about the compound CCCNNC(=O)c1cnc(N2CCCCC2)cn1 ?
163

Then what about the compound CCCNNC(=O)c1cnccn1 ?
128

Then what about the compound CCCCNNC(=O)c1cnc(N2CCCCC2)cn1 ?
119

Then what about the compound CCCCNNC(=O)c1cnc(Nc2ccccc2)cn1 ?
180

Then what about the compound CCCCNNC(=O)c1cnc(Nc2cccc3ccccc23)cn1 ?
151

###

- assay_procedure: AUC (0 to infinity) in Wistar rat at 5 mg/kg, ip measured upto 24 hrs by HPLC analysis
- Type: ADME, organism-based
- Parameters: dose 5 mg/kg, time < 24 hrs, route ip
- run_conditions: in vivo
reported_property: AUC(0-inf) (ng·h/mL)
Numeric answer only, unit ng·h/mL assumed.

I have this compound here, CCCNNC(=O)c1cnc(NCc2ccc(OC)cc2)cn1 , and I need its recorded AUC(0-inf).
4320

###

- experimental_target: Histone deacetylase 8 (Homo sapiens)
- Sequence (Q9BY41 whole entry): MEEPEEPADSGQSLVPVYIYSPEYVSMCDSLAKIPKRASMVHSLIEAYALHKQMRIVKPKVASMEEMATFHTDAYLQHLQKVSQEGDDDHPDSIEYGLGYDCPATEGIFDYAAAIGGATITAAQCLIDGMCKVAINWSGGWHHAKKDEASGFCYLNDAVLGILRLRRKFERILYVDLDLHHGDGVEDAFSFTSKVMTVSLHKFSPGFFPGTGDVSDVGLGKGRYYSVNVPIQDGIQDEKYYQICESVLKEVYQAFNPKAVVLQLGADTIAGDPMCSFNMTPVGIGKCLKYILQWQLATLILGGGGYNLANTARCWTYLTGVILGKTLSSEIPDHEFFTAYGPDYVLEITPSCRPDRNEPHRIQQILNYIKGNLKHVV
- assay_procedure: Inhibition of human recombinant HDAC8 incubated for 10 mins by fluorescence based microplate analysis
reported_property: pIC50
The meaning of pIC50 here: minus log10 of the concentration in molar units.

I have this compound here, Nc1ccccc1NC(=O)c1cnc(NCc2ccccc2)cn1 , and I need its recorded pIC50.
4.81

###

- System: MDA-MB-231
- assay_procedure: Cytotoxicity against human MDA-MB-231 cells assessed as inhibition of cell growth incubated for 72 hrs by MTT assay
- Type: functional, cell-based
- run_conditions: MDA-MB-231, 72 h
Each record here notes measured pIC50.
The meaning of pIC50 here: minus log10 of the concentration in molar units.

Worked set:
CCCCNNC(=O)c1cnc(NC(C)=O)cn1 : 5.52
CCCCNNC(=O)c1cnc(Nc2cccc3ccccc23)cn1 : 5.69
CCCCNNC(=O)c1cnc(NC(=O)c2ccc3ncccc3c2)cn1 : 5.55
CCCNNC(=O)c1cnccn1 : 5.97
CCCCNNC(=O)c1cnc(NCc2ccc(OC)cc2)cn1 : 6.01

I have this molecule here, CCCCNNC(=O)c1cnc(NCc2ccccc2)cn1 , and I need its recorded pIC50.
3.88

Then what about the molecule CCCCNNC(=O)c1cnc(N)cn1 ?
5.90

###

- assay_procedure: Metabolic stability in rat liver microsome assessed as half life preincubated for 5 mins followed by NADPH addition and measured after 60 mins by HPLC analysis
- Format: ADME
- run_conditions: liver microsomes, time 65 min
reported_property: half-life
Be sure to follow the number with its unit.

I have this molecule here, CCCNNC(=O)c1cnc(NCc2ccc(OC)cc2)cn1 , and I need its recorded half-life.
38.3 min

###

- assay_procedure: Cytotoxicity against human HCEC cells assessed as inhibition of cell growth incubated for 72 hrs by MTT assay
- Type: toxicity, cell-based
- run_conditions: hcec
reported_property: IC50 (mM)
Numeric answer only, unit mM assumed.

I have this compound here, CCCCNNC(=O)c1cnc(NCc2ccc(OC)cc2)cn1 , and I need its recorded IC50.
1.37

###

- Test system: MDA-MB-231
- assay_procedure: Cytotoxicity against human MDA-MB-231 cells assessed as inhibition of cell growth incubated for 72 hrs by MTT assay
- Type: functional, cell-based
- run_conditions: MDA-MB-231, 72 h
Each record here notes measured IC50.
Numeric answer only, unit µM assumed.

Worked set:
CCCCNNC(=O)c1cnc(N2CCCCC2)cn1 : 2.93
CCCCNNC(=O)c1cnccn1 : 1.17

I have this compound here, CCCNNC(=O)c1cnc(Nc2cccc3ccccc23)cn1 , and I need its recorded IC50.
1.74

Then what about the compound CCCCNNC(=O)c1ccc(Br)cc1 ?
24.7

Then what about the compound CCCNNC(=O)c1cnc(NCc2ccc(OC)cc2)cn1 ?
0.74

Then what about the compound CCCNNC(=O)c1cnc(NC(=O)c2ccc3[nH]ccc3c2)cn1 ?
0.92

Then what about the compound CCCNNC(=O)c1cnc(N)cn1 ?
0.88

###

Each record here notes measured selectivity ratio.
- assay_procedure: Selectivity ratio of IC50 for cytotoxicity against human HCEC cells assessed as inhibition of cell growth to IC50 for cytotoxicity against human MDA-MB-231 cells assessed as inhibition of cell growth
- Format: toxicity, cell-based
- run_conditions: HCEC cells versus MDA-MB-231 cells, read-out: Ratio IC50

Worked set:
CCCNNC(=O)c1cnc(NC(=O)c2ccc3ncccc3c2)cn1 : > 40
CCCCNNC(=O)c1cnc(NCc2ccc(OC)cc2)cn1 : > 40
CCCNNC(=O)c1cnc(NC(=O)c2ccc3[nH]ccc3c2)cn1 : > 40
CCCNNC(=O)c1cnc(N2CCCCC2)cn1 : > 40
CCCNNC(=O)c1cnccn1 : > 40
CCCCNNC(=O)c1cnc(N)cn1 : > 40
CCCCNNC(=O)c1cnc(NC(=O)c2ccc3ncccc3c2)cn1 : > 40
CCCNNC(=O)c1cnc(N)cn1 : > 40

I have this molecule here, CCCNNC(=O)c1cnc(Nc2ccccc2)cn1 , and I need its recorded selectivity ratio.
> 40

Then what about the molecule CCCCNNC(=O)c1cnc(Nc2ccccc2)cn1 ?
> 40

Then what about the molecule CCCNNC(=O)c1cnc(NC(C)=O)cn1 ?
> 40

Then what about the molecule CCCCNNC(=O)c1cnc(NCc2ccccc2)cn1 ?
> 40

Then what about the molecule CCCCNNC(=O)c1cnccn1 ?
> 40

Then what about the molecule CCCNNC(=O)c1cnc(NCc2ccc(OC)cc2)cn1 ?
286

Then what about the molecule CCCNNC(=O)c1cnc(NCc2ccccc2)cn1 ?
> 40

Then what about the molecule CCCNNC(=O)c1cnc(Nc2cccc3ccccc23)cn1 ?
> 40

Then what about the molecule CCCCNNC(=O)c1cnc(Nc2cccc3ccccc23)cn1 ?
> 40
